Entry source: the supplement of paper PMC5579334

As shown below, each of these compounds has a reported relative IC50 value.
- Test system: YST-1
- PROTOCOL_SUMMARY: relative IC50 (inflection point of fitted dose-response curve, CellTiter-Glo viability, 72 h; top asymptote may be below 50% inhibition); higher = less potent

SMILES_TEXT | UNITS_SYMBOL | VALUE_OPERATOR | relative IC50
CO[C@@H](C(=O)N1Cc2[nH]nc(NC(=O)c3ccc(N4CCN(C)CC4)cc3)c2C1)c1ccccc1 | nM | = | 57.8
Cn1cnc2c(F)c(Nc3ccc(Br)cc3F)c(C(=O)NOCCO)cc21 | nM | > | 1000
CC[C@H](CC#N)OC(=O)N[C@@H](C)c1cccc(NC(=O)Nc2ccc(-c3cnco3)c(OC)c2)c1 | nM | = | 317
CNc1ncc2cc(-c3cc(NC(=O)NCCC(C)(C)C)c(F)cc3C)c(C)nc2n1 | nM | = | 561
